Target: 5-hydroxytryptamine receptor 2A (Homo sapiens, UniProt P28223)
Sequence (P28223 whole entry): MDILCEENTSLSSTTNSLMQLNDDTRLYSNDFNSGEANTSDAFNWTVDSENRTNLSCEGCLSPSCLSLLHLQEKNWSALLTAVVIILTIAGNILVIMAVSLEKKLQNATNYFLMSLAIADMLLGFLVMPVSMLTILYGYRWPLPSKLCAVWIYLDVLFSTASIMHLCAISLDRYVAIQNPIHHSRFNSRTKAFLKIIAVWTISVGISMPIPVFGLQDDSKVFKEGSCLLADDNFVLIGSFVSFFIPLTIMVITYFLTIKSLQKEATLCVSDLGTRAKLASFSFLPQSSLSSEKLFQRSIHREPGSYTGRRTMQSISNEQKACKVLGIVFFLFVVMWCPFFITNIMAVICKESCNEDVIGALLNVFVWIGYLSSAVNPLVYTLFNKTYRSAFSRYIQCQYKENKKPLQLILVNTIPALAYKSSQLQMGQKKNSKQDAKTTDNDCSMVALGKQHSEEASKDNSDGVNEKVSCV
Assay: The compound was tested for CNS binding affinity towards 5-hydroxytryptamine 2A receptor from cloned Human membranes.
Outcome Measure: Ki
Hey, just the number and the unit after it is fine.

For CNC(=O)c1ccc2c(c1)CCO[C@@H]2CCN1CCN(c2ccc(OC)cc2)CC1 on 5-hydroxytryptamine receptor 2A (Homo sapiens, UniProt P28223), measured Ki was 586 nM

* * *

Molecular target: D(4) dopamine receptor (Homo sapiens, UniProt P21917)
Sequence (P21917 whole entry): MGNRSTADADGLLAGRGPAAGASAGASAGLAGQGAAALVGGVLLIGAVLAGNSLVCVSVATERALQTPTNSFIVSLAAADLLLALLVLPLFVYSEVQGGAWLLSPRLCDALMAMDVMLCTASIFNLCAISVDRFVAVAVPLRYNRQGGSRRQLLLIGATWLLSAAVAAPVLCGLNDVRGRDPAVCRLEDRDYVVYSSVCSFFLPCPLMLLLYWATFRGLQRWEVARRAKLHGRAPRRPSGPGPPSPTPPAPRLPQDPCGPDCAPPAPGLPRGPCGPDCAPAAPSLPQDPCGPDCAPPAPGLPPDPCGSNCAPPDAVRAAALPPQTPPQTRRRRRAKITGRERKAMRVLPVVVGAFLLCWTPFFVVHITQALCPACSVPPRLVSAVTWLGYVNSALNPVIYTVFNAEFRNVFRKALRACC
Assay: The compound was tested for CNS binding affinity towards Dopamine receptor D4 from cloned Human membranes
Outcome Measure: pKi
The scale used: pKi is minus the common logarithm of the concentration in molar units.

For COc1ccc(N2CCN(CCC3OCCc4cc(C(N)=O)ccc43)CC2)cc1 (stereo unspecified) on D(4) dopamine receptor (Homo sapiens, UniProt P21917), measured pKi was 5.98
